B1: VH:VL chains; a variant is named by its letters at X, in order (parent)
chain 1: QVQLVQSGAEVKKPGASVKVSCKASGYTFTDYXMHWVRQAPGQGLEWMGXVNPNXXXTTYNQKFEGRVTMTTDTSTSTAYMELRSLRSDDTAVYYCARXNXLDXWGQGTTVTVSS
chain 2: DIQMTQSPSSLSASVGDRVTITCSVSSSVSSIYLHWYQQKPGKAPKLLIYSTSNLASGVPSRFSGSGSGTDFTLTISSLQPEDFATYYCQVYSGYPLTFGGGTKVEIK

variants of: B1; assay: yeast display scFab, FACS + sequencing

>  <variant_id>
YRGRGASF

>  <non-specific binding call>
binds

$$$$
>  <variant_id>
YKGRGSWS

>  <non-specific binding call>
binds

$$$$
>  <variant_id>
YRRGGDGA

>  <non-specific binding call>
binds

$$$$
>  <variant_id>
VKAGSDVA

>  <non-specific binding call>
no binding

$$$$
>  <variant_id>
ARRGSAVS

>  <non-specific binding call>
binds

$$$$
>  <variant_id>
YRGRGFAD

>  <non-specific binding call>
binds

$$$$
>  <variant_id>
YRAGGYVF

>  <non-specific binding call>
binds

$$$$
>  <variant_id>
SEARSDAD

>  <non-specific binding call>
no binding

$$$$
>  <variant_id>
YRKGGSGV

>  <non-specific binding call>
binds

$$$$
>  <variant_id>
STGGDDGF

>  <non-specific binding call>
no binding

$$$$
>  <variant_id>
YAREDDGA

>  <non-specific binding call>
no binding

$$$$
